Test system: SF-268 CNS
ASSAY METHOD TEXT: NCI-60 one-dose screen, 48 h
RUN PARAMETERS: 10 µM unless noted
This is part of a sample that, as a whole, favours compounds with a hit. Of some 83,000 tested, about 20% had one in any assay. The source made the active and inactive calls. Rule for the calls: active = growth percent below 10; inactive = the rest.
Form entry, call: pick from active, inactive

input: // return assay outcome for C[C@H]1[C@@H](CC(=O)N[C@@H](Cc2coc3ccccc23)B(O)O)O[C@@H]2OC3(C)CC[C@H]4[C@H](C)CC[C@@H]1[C@@]24O3
output: inactive

input: // return assay outcome for CN(C)c1nc(NCCNS(=O)(=O)c2ccc(C3=Nc4c(N)nc(N)nc4NC(c4ccc(Cl)cc4)C3)cc2)nc(N2CCOCC2)n1 (centres undefined)
output: inactive

input: // return assay outcome for CN1CCN(C(=O)Oc2cc3c(c4ccccc24)[C@H](CCl)CN3C(=O)c2cc3cc(OCCCN4CCC4)ccc3[nH]2)[C@H]2CSSC[C@H]21
output: active

input: // return assay outcome for COc1ccc(NC(=O)N/N=C/c2c[nH]c3ccccc23)cc1
output: inactive

----------
System: NCI/ADR-RES ovarian
ASSAY METHOD TEXT: NCI-60 one-dose screen, 48 h
RUN PARAMETERS: 10 µM unless noted
About 83,000 compounds went through this panel and 20% of them were active in at least one assay; those are over-represented in the sample as a whole. The source made the active and inactive calls. How the source made its calls: active means growth percent below 10; inactive means the rest.
Form entry, call: pick from active, inactive

As a guide, the following entries are already answered.
SMILES REPRESENTATION: COc1ccc(C(=O)NNC(=O)CSc2nc3sc4c(c3c(=O)n2-c2ccc(Cl)cc2)CCCC4)cc1
DISCRETE LABEL: inactive
--
SMILES REPRESENTATION: CCCCCCCCCCCCCCCCCC(=O)Nc1ccc(OC)cc1
DISCRETE LABEL: inactive
--
SMILES REPRESENTATION: O=C(N/N=C/c1ccsc1)c1[nH]c2ccc(Br)cc2c1-c1ccccc1
DISCRETE LABEL: active
--
SMILES REPRESENTATION: CC1=C(C)C(=O)C(NCCN2CCOCC2)=C(Br)C1=O
DISCRETE LABEL: inactive

Continue with the next compound.
input: // return assay outcome for O=C(Cn1c(-c2ccccc2)nc2ccccc21)N=Nc1c(O)[nH]c2ccc(Cl)cc12
output: active

----------
Tested on: CAKI-1 renal
ASSAY METHOD TEXT: NCI-60 one-dose screen, 48 h
RUN PARAMETERS: 10 µM unless noted
This is part of a sample that, as a whole, favours compounds with a hit. Of some 83,000 tested, about 20% had one in any assay. The source made the active and inactive calls. Rule for the calls: active = growth percent below 10; inactive = the rest.
Form entry, call: pick from True (active), False (inactive)

As a guide, the following entries are already answered.
COMPOUND: CN1CCN(C(=O)CCN(C(=O)Oc2cc3c(c4ccccc24)[C@H](CCl)CN3C(=O)c2cc3cc(OCCCN4CCC4)ccc3[nH]2)[C@H]2CCSSC2)CC1
DISCRETE LABEL: True
//
COMPOUND: C/C(=N\Nc1ccc(S(N)(=O)=O)cc1)c1cnn(-c2cc(=O)[nH]c3ccc(Br)cc23)c1C
DISCRETE LABEL: False
//
COMPOUND: Cc1cccc(/C=C/c2ccc(NC(=S)NCCCCN(C)C)cc2)c1
DISCRETE LABEL: True
//
COMPOUND: CC[C@]12C=CCN3CC[C@@]4(c5ccc(OC)cc5N(C)[C@H]4[C@@](O)(C(=O)OC)[C@@H]1OC(=O)CCCC[P+](c1ccc(F)cc1)(c1ccc(F)cc1)c1ccc(F)cc1)[C@@H]32
DISCRETE LABEL: False
//
COMPOUND: NNc1ncnc2sc3c(c12)CCN(Cc1ccccc1)C3
DISCRETE LABEL: False
//
COMPOUND: CCOc1ccccc1[C@H]1C(C(=O)c2ccc(Cl)cc2)C2(N[C@@H]1c1ccccc1)C(=O)Nc1ccc(Cl)cc12 (stereo partly drawn)
DISCRETE LABEL: False
//
COMPOUND: CCN1CCN(Cc2ccc(C(=O)Nc3cccc(Nc4ccc5c(OC)cccc5n4)c3)cc2C(F)(F)F)CC1
DISCRETE LABEL: True
//
COMPOUND: O=C(N=Nc1c(O)[nH]c2ccc(Cl)cc12)c1ccc2nc(-c3ccc(Cl)cc3)[nH]c2c1
DISCRETE LABEL: False
//
COMPOUND: FC(F)(F)c1cc2c(Cl)ncnc2n1CCC1CCOCC1
DISCRETE LABEL: False
//
COMPOUND: COc1ccc2c(c1)C(Sc1ccc(F)cc1)c1c(nc(N)c(C#N)c1N)O2 (stereo not drawn)
DISCRETE LABEL: False

input: // return assay outcome for c1n[nH]cc1-c1nc2ccc3[nH]ncc3c2c2c1CC1(CC2)COC1
output: False

input: // return assay outcome for O=C(Nc1ccc(-c2ccc3c(c2)NC(=O)/C3=C\c2ccc[nH]2)cc1)Nc1ccc(Cl)c(C(F)(F)F)c1
output: False

input: // return assay outcome for CCCN(CCC)S(=O)(=O)c1ccc(C(=O)O)cc1.CCCN(CCC)S(=O)(=O)c1ccc(C(=O)O)cc1.[Cl][Pt+2][Cl].[NH2-].[NH2-]
output: False

input: // return assay outcome for N/C(=N\c1nc2ccc([N+](=O)[O-])cc2s1)NC(=O)Nc1ccccc1Cl
output: False

input: // return assay outcome for COC(=O)c1cccc(Oc2ccc(NC(=O)Nc3cc(C(F)(F)F)ccc3F)cc2)c1
output: False

input: // return assay outcome for Nc1nc2cc(-c3ccc4ncnc(NCc5ccccc5)c4c3)ccc2o1
output: True

input: // return assay outcome for O=C(N/N=C/c1ccc(Cl)o1)c1[nH]c2ccc(Br)cc2c1-c1ccccc1
output: True

input: // return assay outcome for O=C(N=Nc1c(O)[nH]c2ccc(Br)cc12)c1ccc2nc(-c3ccc(Cl)cc3)[nH]c2c1
output: False
